Protocol notes: total protein half-life in vivo (active degradation + dilution); higher = more stable protein
Condition label: E. coli NCM3722 delta-clpP delta-lon delta-hslV; growth: N-lim chemostat; doubling time 6 h
Observable: total protein half-life in vivo

MFDIGVNLTSSQFAKDRDDVVACAFDAGVNGLLITGTNLRESQQAQKLARQYSSCWSTAGVHPHDSSQWQAATEEAIIELAAQPEVVAIGECGLDFNRNFSTPEEQERAFVAQLRIAADLNMPVFMHCRDAHERFMTLLEPWLDKLPGAVLHCFTGTREEMQACVAHGIYIGITGWVCDERRGLELRELLPLIPAEKLLIETDAPYLLPRDLTPKPSSRRNEPAHLPHILQRIAHWRGEDAAWLAATTDANVKTLFGIAF
5.07 h

Which measured total protein half-life in vivo value corresponds to MVRIYTLTLAPSLDSATITPQIYPEGKLRCTAPVFEPGGGGINVARAIAHLGGSATAIFPAGGATGEHLVSLLADENVPVATVEAKDWTRQNLHVHVEASGEQYRFVMPGAALNEDEFRQLEEQVLEIESGAILVISGSLPPGVKLEKLTQLISAAQKQGIRCIVDSSGEALSAALAIGNIELVKPNQKELSALVNRELTQPDDVRKAAQEIVNSGKAKRVVVSLGPQGALGVDSENCIQVVPPPVKSQSTVGAGDSMVGAMTLKLAENASLEEMVRFGVAAGSAATLNQGTRLCSHDDTQKIYAYLSR ?
5.23 h

----------
Protocol notes: total protein half-life in vivo (active degradation + dilution); higher = more stable protein
Condition label: wild type E. coli NCM3722; growth: N-lim chemostat; doubling time 12 h
// values below are reported total protein half-life in vivo
# do not omit the unit; it follows the number

Study these solved cases before continuing.
MDKFDANRRKLLALGGVALGAAILPTPAFATLSTPRPRILTLNNLHTGESIKAEFFDGRGYIQEELAKLNHFFRDYRANKIKSIDPGLFDQLYRLQGLLGTRKPVQLISGYRSIDTNNELRARSRGVAKKSYHTKGQAMDFHIEGIALSNIRKAALSMRAGGVGYYPRSNFVHIDTGPARHW [P0AB06]
1.81 h
MSRPLLQLALDHSSLEAAQRDVTLLKDSVDIVEAGTILCLNEGLGAVKALREQCPDKIIVADWKVADAGETLAQQAFGAGANWMTIICAAPLATVEKGHAMAQRCGGEIQIELFGNWTLDDARDWHRIGVRQAIYHRGRDAQASGQQWGEADLARMKALSDIGLELSITGGITPADLPLFKDIRVKAFIAGRALAGAANPAQVAGDFHAQIDAIWGGARA
6.66 h
MSKSDVFHLGLTKNDLQGATLAIVPGDPDRVEKIAALMDKPVKLASHREFTTWRAELDGKPVIVCSTGIGGPSTSIAVEELAQLGIRTFLRIGTTGAIQPHINVGDVLVTTASVRLDGASLHFAPLEFPAVADFECTTALVEAAKSIGATTHVGVTASSDTFYPGQERYDTYSGRVVRHFKGSMEEWQAMGVMNYEMESATLLTMCASQGLRAGMVAGVIVNRTQQEIPNAETMKQTESHAVKIVVEAARRLL
10.7 h
MQARVKWVEGLTFLGESASGHQILMDGNSGDKAPSPMEMVLMAAGGCSAIDVVSILQKGRQDVVDCEVKLTSERREEAPRLFTHINLHFIVTGRDLKDAAVARAVDLSAEKYCSVALMLEKAVNITHSYEVVAA [P0ADX1]
8.73 h
MSFFHASQRDALNQSLAEVQGQINVSFEFFPPRTSEMEQTLWNSIDRLSSLKPKFVSVTYGANSGERDRTHSIIKGIKDRTGLEAAPHLTCIDATPDELRTIARDYWNNGIRHIVALRGDLPPGSGKPEMYASDLVTLLKEVADFDISVAAYPEVHPEAKSAQADLLNLKRKVDAGANRAITQFFFDVESYLRFRDRCVSAGIDVEIIPGILPVSNFKQAKKFADMTNVRIPAWMAQMFDGLDDDAETRKLVGANIAMDMVKILSREGVKDFHFYTLNRAEMSYAICHTLGVRPGL [P0AEZ1]
4.47 h

Let us move to another entry and its total protein half-life in vivo.
Which measured total protein half-life in vivo value corresponds to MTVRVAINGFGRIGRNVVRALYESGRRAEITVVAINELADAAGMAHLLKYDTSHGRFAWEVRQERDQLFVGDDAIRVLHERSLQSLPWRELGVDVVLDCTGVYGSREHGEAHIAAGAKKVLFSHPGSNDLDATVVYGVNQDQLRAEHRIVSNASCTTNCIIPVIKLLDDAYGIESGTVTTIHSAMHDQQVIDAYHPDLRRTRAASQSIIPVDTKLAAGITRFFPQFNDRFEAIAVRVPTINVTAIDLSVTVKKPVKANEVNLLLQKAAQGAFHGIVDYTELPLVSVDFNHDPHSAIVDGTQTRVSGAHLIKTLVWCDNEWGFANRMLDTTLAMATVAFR [P0A9B6] ?
5.94 h
